system: SF-295 CNS; assay: NCI tumour cell line growth inhibition, 48 h
measuredProperty: TGI

The examples below pair each entry with its known result.
- molecule: "[N-]=[N+]=NC(CCl)c1cn([C@H]2C[C@H](O)[C@@H](CO)O2)c(=O)[nH]c1=O (some centres undefined)"
  TGI: "> 100 µM"
- molecule: "COc1ccc(-c2nn(-c3cccc(Cl)c3)cc2-c2cc(-c3cccs3)[nH]c(=S)n2)cc1"
  TGI: "7.09 µM"
- molecule: "CC[C@H](CCCC[C@H]1CC[C@@H]2CC(=O)C[C@H]12)OC"
  TGI: "> 100 µM"
- molecule: "Cc1c2ccncc2c(C)c2c1[nH]c1ccc(OC(C)C)cc12"
  TGI: "2.73 µM"
- molecule: "CS(=O)(=O)OC1CCC2(C#N)CCC1C2=O (centres undefined)"
  TGI: "> 100 µM"

Turning now to a further molecule:
Request the reported TGI associated with CC1CCC2(O)C3(C)CC4(O)OC2(C1O)C1(O)C3(O)C(OC(=O)c2ccc[nH]2)C(O)(C(C)C)C41C (centres undefined) > 100 µM

* * *

In this section we review reported TGI values for a set of compounds.
test system: SF-268 CNS; experiment: NCI tumour cell line growth inhibition, 48 h

The examples below pair each entry with its known result.
- compound: "Cc1ccc(S(=O)(=O)N2CCC(=O)c3cc(Br)ccc32)cc1"
  value: "> 94.8 µM"
- compound: "CCOC(=O)c1cc(=O)c2ccnc3c2n1CCS3"
  value: "> 100 µM"
- compound: "CC[C@@H]1c2c(C#N)ncn2-c2cnc(Nc3ccc(C(=O)NC4CCN(C5CCN(CC6CC6)CC5)CC4)cc3OC)nc2N1C1CCCC1"
  value: "1.77 µM"

Request the reported TGI associated with CCOC(=O)/C(C=Nc1ccc(-c2nc3ccccc3[nH]2)cc1)=C(/C)O 34.5 µM

Request the reported TGI associated with CS(=O)(=O)OC1CCC2(C#N)CCC1C2=O (stereo not given) > 100 µM

* * *

In this section we review reported TGI values for a set of compounds.
tested on: HCT-116 colon; experiment: NCI tumour cell line growth inhibition, 48 h
Where a SMILES comes first, the peptide text is derived from it. [ ]: non-standard residue; d: D form. pGlu = O=C1CC[CH](C(=O)O)N1

- compound: "CCOC(=O)Nc1ccc2c(c1)/C(=N\\NC(N)=S)c1ccccc1-2"
  value: "50 µM"
- compound: "Cc1ccc2nc(Cl)c(/C=N/N3C(=O)/C(=C/c4cccc([N+](=O)[O-])c4)N=C3c3ccccc3)cc2c1"
  value: "> 100 µM"
- compound: "O=C1NCC(CSc2nc3cc(C4CCCc5c4[nH]c4ccccc54)ccc3o2)N1 (stereo not drawn)"
  value: "> 100 µM"
- compound: "O=C1NC2=C(CCCC/C2=N\\O)C12CCCCC2"
  value: "> 100 µM"

Request the reported TGI associated with O=C1CSC(=S)N1 > 100 µM

Request the reported TGI associated with COC(=O)/C=C\COCC1C2CCC(=O)C21 (stereo not drawn) > 25 µM

Request the reported TGI associated with COc1ccc(/C=N/N=C(\N)NO)cc1O > 100 µM

Request the reported TGI associated with CCNC(=O)C1CCCN1C(=O)C(CCCN=C(N)N)NC(=O)C(CC(C)C)NC(=O)C(CC(C)C)NC(=O)C(Cc1ccc(O)cc1)NC(=O)C(CO)NC(=O)C(Cc1c[nH]c2ccccc12)NC(=O)C(Cc1cnc[nH]1)NC(=O)C1CCC(=O)N1 (stereo not drawn) ([pGlu]HWSYLLRP-NHEt; configuration not given here) > 100 µM

Request the reported TGI associated with CC(C)=CC1C[C@H](C2CC=C3C2(C)CCC2[C@@]3(C)C(=O)CC3[C@]2(C)C=CC(=O)[C@]3(C)CO)CO1 (stereo partly drawn) 10.2 µM

* * *

In this section we review reported TGI values for a set of compounds.
tested on: ACHN renal; assay: NCI tumour cell line growth inhibition, 48 h

- chemicalSmiles: "COc1c2cc(C(C)(C)C)cc1Cc1cccc(c1OCc1cccc([N+](=O)[O-])c1)Cc1cc(C(C)(C)C)cc(c1OC)Cc1cccc(c1OCc1cccc([N+](=O)[O-])c1)Cc1cc(C(C)(C)C)cc(c1OC)Cc1cccc(c1OCc1cccc([N+](=O)[O-])c1)C2"
  value: "> 50 µM"
- chemicalSmiles: "C=C1C(=O)O[C@H]2[C@H]1CC/C(CNC(=O)/C=C/c1cc(OC)c(OC)c(OC)c1)=C\\CC[C@@]1(C)O[C@@H]21"
  value: "2.89 µM"

Request the reported TGI associated with O=c1[nH]nc(-c2ccccc2)n1Nc1ccccc1 > 100 µM

* * *

system: IGROV1 ovarian; assay: NCI tumour cell line growth inhibition, 48 h
measuredProperty: TGI

- compound: "O=C1N=C(SC(SC2=NC(=O)C3(NN2)c2ccccc2-c2ccccc23)=C(SC2=NC(=O)C3(NN2)c2ccccc2-c2ccccc23)SC2=NC(=O)C3(NN2)c2ccccc2-c2ccccc23)NNC12c1ccccc1-c1ccccc12"
  value: "> 10 µM"
- compound: "CCOC(=O)C12CCCC1(O)N(NC(=O)OC(C)(C)C)C(C)=C2C(=O)OC (centres undefined)"
  value: "> 100 µM"
- compound: "COc1cc(C(=O)/C=C/c2ccc(OCC#N)cc2)cc(OC)c1OC"
  value: "> 100 µM"
- compound: "CC1(C)CC(C2=NCCO2)CC(C)(C)N1"
  value: "> 100 µM"
- compound: "BrC1=CCC23CC=C(Br)[C@H]4CC2(COC3)C[C@@H]1O4 (some centres undefined)"
  value: "> 100 µM"

Turning now to a further compound:
Request the reported TGI associated with CC(CC[C@@H](O)C(C)(C)O)C1[C@@H](O)CC2(C)C3CC(O)C4C(C)(C)[C@@H](OC5OC(CO)C(O)C(O)C5O)CC[C@@]45C[C@@]35CC[C@]12C (some centres undefined) > 10 µM

* * *

In this section we review reported TGI values for a set of compounds.
system: UACC-62 melanoma; assay: NCI tumour cell line growth inhibition, 48 h
Give just the number in µM; leave the unit off.

- chemicalSmiles: "CC[C@@H]1c2c(C#N)ncn2-c2cnc(Nc3ccc(C(=O)NC4CCN(C5CCN(CC6CC6)CC5)CC4)cc3OC)nc2N1C1CCCC1"
  experimentalTarget: "UACC-62 melanoma"
  value: 1.79

Turning now to a further compound:
Request the reported TGI associated with Fc1ccc(C(OCCN2CCN(CCCCl)CC2)c2ccc(F)cc2)cc1 40.7

* * *

tested on: DLD-1 colon; assay: NCI tumour cell line growth inhibition, 48 h
measuredProperty: TGI

- compound: "COc1ccc(C23C(=O)c4ccccc4N2O[C@H]2C(=O)N(c4ccccc4)C(=O)[C@H]23)cc1 (stereo partly drawn)"
  value: "> 100 µM"
- compound: "COc1cc(Br)c(C=Nc2cccc3cc(OC)c(OC)cc23)cc1OC"
  value: "> 100 µM"

Request the reported TGI associated with CCN(CC)CCNc1ccc2nnn3c4ccc(C)cc4c(=O)c1c23 25.9 µM

* * *

test system: OVCAR-8 ovarian; experiment: NCI tumour cell line growth inhibition, 48 h
In this section we review reported TGI values for a set of compounds.

The examples below pair each entry with its known result.
- compound: "OC1c2ccccc2CC12Cc1ccccc1C2 (stereo not given)"
  TGI: "> 100 µM"
- compound: "NCCCOc1ccc([N+](=O)[O-])cc1Cl"
  TGI: "> 100 µM"
- compound: "OCCOCCN1CCN(CCCN2c3ccccc3Sc3ccc(C(F)(F)F)cc32)CC1"
  TGI: "30 µM"
- compound: "CCOC(=O)C12CCCC1(O)N(NC(=O)OC(C)(C)C)C(C)=C2C(=O)OC (stereo not given)"
  TGI: "> 100 µM"
- compound: "O=C(O)CCN(CCCCN(CCC(=O)O)CCC(=O)O)CCC(=O)O"
  TGI: "> 100 µM"

Request the reported TGI associated with CN(C)CCCNC(=O)c1c(O)c2ccccc2[nH]c1=O > 100 µM

Request the reported TGI associated with CC1=C(C(=O)Nc2cc(=O)n(C)c(=O)n2C)C(c2ccco2)C(C(=O)Nc2cc(=O)n(C)c(=O)n2C)=C(C)N1 > 100 µM

Request the reported TGI associated with Cc1cc(-c2cccc3ccccc23)c(C#N)c(=S)n1C1OC(CO)C(O)C(O)C1O (stereo not given) > 100 µM

Request the reported TGI associated with OC(Cc1ccncc1)C(Cl)(Cl)Cl (stereo not given) > 100 µM

Request the reported TGI associated with ClCc1cccc2c(CCl)cccc12 33.6 µM

Request the reported TGI associated with COC(=O)c1ccc(-c2nc3cc(Cl)c(Cl)cc3nc2C#N)cc1 > 100 µM

Request the reported TGI associated with C[C@@]1(O)C[C@@H](N2C(=O)O[C@@H](c3ccccc3)[C@H]2c2ccccc2)[C@@H]1COCc1ccccc1 54 µM

Request the reported TGI associated with Cc1ccc([N+](=O)[O-])cc1S(=O)(=O)Nc1ccc(C2=NOC(c3ccco3)C2)cc1 (stereo not given) > 100 µM

FYI, the data here is from PubChem BioAssay (NCI).
